FYI, the data here is from ChEMBL document CHEMBL1201862.

Tested on: SK-MEL-28
Experiment: NCI tumour cell line growth inhibition, 48 h
The source made the active and inactive calls. Cut-off read from the data, not from the text of the source: active = GI50 up to about 1.1 µM and inactive = higher.
Measurement label: GI50

| Compound | Result |
| --- | --- |
| O=C1OC(c2ccccc2)N/C1=C\c1ccc2c(c1)OCO2 (stereo unspecified) | 87.5 µM (inactive) |
| O=C(Nc1ccccc1)C(=O)C(C(=O)c1ccccc1)C(c1ccccc1)c1ccccc1 (stereo unspecified) | > 10 µM (inactive) |
| COc1cc(Br)cc2cc(C3=CSC4=NCCN34)c(=O)oc12 | 29.5 µM (inactive) |
| COc1ccc2c(c1)c(CC(=O)O)c(C)n2C(=O)c1ccc(Cl)cc1 | > 100 µM (inactive) |
| O=c1[nH]c2c(Nc3c4ccccc4nc4ccccc34)c([N+](=O)[O-])c(Nc3c4ccccc4nc4ccccc34)c([N+](=O)[O-])c2[nH]1 | 3.13 µM (inactive) |

Data request, read-out GI50, for O=C(Nc1ccccc1)n1[nH]c(=O)n(-c2ccccc2)c1=O
> 100 µM (inactive)

Data request, read-out GI50, for C[C@H]1[C@H](C)CC[C@]2(C(=O)OC3OC(CO)C(O)C(O)C3O)CC[C@]3(C)C(=CC[C@@H]4[C@@]5(C)C[C@@H](O)[C@@H]6OC(=O)c7cc(O)c(O)c(O)c7-c7c(cc(O)c(O)c7O)C(=O)OC[C@@]6(CO)[C@@H]5CC[C@]43C)[C@H]12 (stereo partly specified)
> 100 µM (inactive)

Data request, read-out GI50, for NC(=O)c1csc(C2O[C@@H](COP(=O)(O)OP(=O)(O)OC[C@H]3OC(n4cnc5c(N)ncnc54)[C@H](O)[C@@H]3O)[C@H](O)[C@@H]2O)n1 (stereo partly specified)
30 µM (inactive)

Data request, read-out GI50, for O=CN1CCC23CC(O)CCC2C1Cc1cc(Oc2nnnn2-c2ccccc2)cc(O)c13 (stereo unspecified)
> 100 µM (inactive)

Data request, read-out GI50, for Cc1ccc(NC(=O)CCC(=O)C(C#N)c2ccc(Cl)cc2)cc1C (stereo unspecified)
> 100 µM (inactive)

Data request, read-out GI50, for Cc1cc2c(c(C(N)=O)c1C)-c1cccc(Cl)c1C2=O
> 100 µM (inactive)

Data request, read-out GI50, for O=NN(CCCl)C(=O)N[C@H]1CC[C@H](C(=O)O)CC1
> 100 µM (inactive)

Data request, read-out GI50, for c1cc(C2N3CCCN2CC3)ccn1 (stereo unspecified)
> 100 µM (inactive)

Data request, read-out GI50, for Cc1cc(S(=O)(=O)Nc2nc3cscc3c(=O)n2N)c(S)cc1Cl
73.3 µM (inactive)

Data request, read-out GI50, for O=C(CC(C(=O)c1ccsc1)c1ccc2c(c1)OCO2)c1ccccc1 (stereo unspecified)
> 100 µM (inactive)

Data request, read-out GI50, for NC(=O)c1ncn2c1NC(=O)CC2
> 100 µM (inactive)

Data request, read-out GI50, for C=CC1=C(C)/C(=C/C2=NC(=C\c3[nH]c(CC4NC(=O)C(C)/C4=C\C)c(C)c3CCC(=O)O)/C(CC(=O)O)=C2C)NC1=O (stereo unspecified)
> 100 µM (inactive)

Data request, read-out GI50, for CC(=O)O[C@H]1CCC2[C@@H]3CCC4NC(=O)C(C#N)C[C@]4(C)C3CC[C@@]21C (stereo partly specified)
> 10 µM (inactive)

Data request, read-out GI50, for CC(=O)NS(=O)(=O)c1ccc(NC(=O)c2c3ccccc3nc3ccccc23)cc1
> 100 µM (inactive)

Data request, read-out GI50, for O=C1c2ccccc2C(=O)N1CCCC(=O)n1cc(F)c(=O)[nH]c1=O
> 100 µM (inactive)

Data request, read-out GI50, for Cc1cc2c(cc1C)C(=O)C1(C2)Cc2cc3c(cc2C1=O)CCC3 (stereo unspecified)
> 100 µM (inactive)

* * *

Test system: A549
Assay: NCI tumour cell line growth inhibition, 48 h
The source made the active and inactive calls. Cut-off read from the data, not from the text of the source: active = GI50 up to about 1.1 µM and inactive = higher.
Measurement label: GI50

| Compound | GI50 |
| --- | --- |
| Cc1cc(S(=O)(=O)Nc2nc(Nc3ccccc3)n[nH]2)c(SCC(=O)O)cc1Cl | > 100 µM (inactive) |
| Cc1ccc(O)c(C2=CC(c3cccc(Cl)c3)SC(=N)N2)c1 (stereo not given) | 23.3 µM (inactive) |
| O=C1c2ccccc2C(=O)N1CCCC(=O)n1cc(F)c(=O)[nH]c1=O | 3.6 µM (inactive) |

# evaluate next
Data request, read-out GI50, for CCCCCN1CCN(c2ncccn2)CC1
> 100 µM (inactive)

* * *

Tested on: KM-20L2
Assay: NCI tumour cell line growth inhibition, 48 h
Calls of active or inactive are those of the source. No stated cut-off is given here; in the data, active = GI50 up to about 1.1 µM and inactive = higher.
# GI50 annotations

// worked examples, GI50 included
| Molecule | Result |
| --- | --- |
| C=CC1=C(C)/C(=C/C2=NC(=C\c3[nH]c(CC4NC(=O)C(C)/C4=C\C)c(C)c3CCC(=O)O)/C(CC(=O)O)=C2C)NC1=O (stereo not given) | > 100 µM (inactive) |
| On1c(-c2ccccc2)c(-c2ccccc2N2CCCC2)c2ccccc21 | > 100 µM (inactive) |
| Brc1ccc(-c2cc3c(cc2C2SCCS2)OCO3)cc1 | 26.7 µM (inactive) |
| CN(C)/C=N\c1cc[nH]c(=O)n1 | > 100 µM (inactive) |

Lookup: GI50 / KM-20L2 / C=C1C(=O)C[C@@]23CCC[C@@]12CC(OCOC)C3 (stereo not given in full)
2.83 µM (inactive)

* * *

System: M19-MEL
Test: NCI tumour cell line growth inhibition, 48 h
Calls of active or inactive are those of the source. Cut-off read from the data, not from the text of the source: active = GI50 up to about 1.1 µM and inactive = higher.
Your reply should match one of these outcome classes. active, inactive

Example cases with answers are listed next.
| Compound | Class |
| --- | --- |
| Brc1ccc(N2C[N+](c3ccc(Br)cc3)=NC(c3ccccc3)=N2)cc1.[O-][Cl+3]([O-])([O-])[O-] | inactive |
| O=C1C2ON3c4ccccc4C(=O)C3(c3ccccc3)C2C(=O)N1c1ccccc1 (stereo unspecified) | inactive |
| C=CC1(CC)/C(=N\O)C(CC)(CC)C(=O)N1O (stereo unspecified) | inactive |
| COc1c(Cl)cc(Cl)cc1S(=O)O | inactive |
| CON(C)C(=O)C(Cc1ccccc1)NC(=O)OCc1ccccc1 (stereo unspecified) | inactive |
| COc1ccc(SS(=O)(=O)c2ccc(OC)cc2)cc1 | inactive |
| NC(=S)N/N=C1\CC(c2ccccc2)Nc2ccccc21 (stereo unspecified) | inactive |
| O=C(CCn1[nH]c(=O)c(Cl)c(Cl)c1=O)NNC(=O)C[n+]1ccccc1 | inactive |
| NC(=O)c1ncn2c1NC(=O)CC2 | inactive |
| Cc1csc2c1C(=O)c1ccsc1C2=O | active |

Please share the test call associated with CN1C(=O)C(=O)N2c3ccc(Cl)cc3C3(c4ccccc4)N=CC12O3 (stereo unspecified) .
inactive

* * *

Test system: M19-MEL
Assay: NCI tumour cell line growth inhibition, 48 h
Calls of active or inactive are those of the source. Rule as the data show it: active = GI50 up to about 1.1 µM and inactive = higher.
Your reply should match one of these outcome classes. 1 (active), -1 (inactive)

| Molecule | Experimental target | Class |
| --- | --- | --- |
| CN(C)CCNC(=O)Cc1ccccc1Nc1c(Cl)cccc1Cl | M19-MEL | -1 |
| C=C1CC(OC)(C(O)C(=O)N[C@H]2OCO[C@H]3C2O[C@H](C[C@@H](COC)OC)C(C)(C)C3OC)O[C@H](C)[C@@H]1C (stereo partly drawn) | M19-MEL | 1 |
| CC(=O)Nc1ccc(/C=C/C(=O)c2sc(-c3nc(C)c(C(=O)/C=C/c4ccc(NC(C)=O)cc4)s3)nc2C)cc1 | M19-MEL | -1 |
| COc1ccc(OCC(=O)O)c2c1CCC(C)C2=O (stereo not drawn) | M19-MEL | -1 |
| NS(=O)(=O)c1cc2c(cc1Cl)NC(C(=O)NNC(=O)c1ccncc1)=NS2(=O)=O | M19-MEL | -1 |
| NC(=O)N=C(N(Cc1ccccc1)Cc1ccccc1)N(Cc1ccccc1)Cc1ccccc1 | M19-MEL | -1 |
| CCOC(=O)N1C2C=C(C)C(ON2C(=O)c2ccccc2)C2C(C)C(=O)N21 (stereo not drawn) | M19-MEL | -1 |

Now turn to the next molecule.
Please share the test call associated with CCCCCCCCCCCCCCCC(=O)OCCOCCOCCOCCOCCOC(=O)CCCCCCCCCCCCCCC .
-1

* * *

Tested on: BT-549
Experiment: NCI tumour cell line growth inhibition, 48 h
Calls of active or inactive are those of the source. No stated cut-off is given here; in the data, active = GI50 up to about 1.1 µM and inactive = higher.
Your reply should match one of these outcome classes. active, inactive

Please share the test call associated with CSC1=NC(C(N)=O)C(N)N1C (configuration not stated) .
inactive

Please share the test call associated with O=C1SC(c2ccc(Cl)cc2)(c2ccc(Cl)cc2)c2ccccc21 .
inactive

Please share the test call associated with CC1(C)OC(CCC#N)CN1C(=O)OCc1ccccc1 (configuration not stated) .
inactive

Please share the test call associated with COc1cc(N(C)C)ccc1C=c1c2ccccc2n2c1cc(-c1ccccc1)[n+]2C .
active

Please share the test call associated with COc1ccc2c(c1)OC1c3ccccc3OCC21 (configuration not stated) .
inactive

Please share the test call associated with Cc1cc(C)c2c(=N)c3ccccc3n(CCCCCCO)c2n1 .
inactive

Please share the test call associated with c1cc(C2N3CCCN2CC3)ccn1 (configuration not stated) .
inactive

Please share the test call associated with O=C1NC(=S)NC(=O)C1=C/C=C/c1ccc([N+](=O)[O-])cc1 .
inactive

Please share the test call associated with CC12ON=C(c3ccccc3)N1C=CN1C(c3ccccc3)=NOC12 (configuration not stated) .
inactive

Please share the test call associated with NS(=O)(=O)c1cc(S(N)(=O)=O)c(NC(=O)Nc2ccc(Cl)c(Cl)c2)c(Cl)c1Cl .
inactive

Please share the test call associated with CC1C2C=CC1C(c1c3ccc(=O)c(O)c-3oc3c(O)c(O)ccc13)C2C(=O)O (configuration not stated) .
inactive

Please share the test call associated with CCN(CC)CCCNC(=O)c1cc(-c2nccn2C)nc2ccccc12 .
inactive

Please share the test call associated with CC(C)(CO)CNc1nc(N)nc(Cl)c1/C=N/O .
inactive

Please share the test call associated with O=[N+]([O-])C(/C=C(\Cl)[N+](=O)[O-])=C1Nc2ccccc2N1 .
inactive

Please share the test call associated with NN/C(=N\S(=O)(=O)c1cccc2nsnc12)Nc1ccc(Cl)cc1 .
inactive

Please share the test call associated with Cc1cc(S(=O)(=O)Nc2nc(Nc3ccccc3)n[nH]2)c(SCC(=O)O)cc1Cl .
inactive
